- tested.on: HIV-1 RT (reverse transcriptase)
- assay.details: Inhibitory effect on HIV-1 RT activity using template primer,poly (rA)-oligo (dT)
attribute.measured: IC50 (µM)
Give just the numeric value; µM need not be written.

Query (compound): CCN(C)C(=O)Oc1nsnc1-c1c(Cl)cccc1Cl ; field requested: IC50
3.4

Query (compound): CCCCN(C)C(=O)Oc1nsnc1-c1c(Cl)cccc1Cl ; field requested: IC50
12

Query (compound): CCCN(C)C(=O)Oc1nsnc1-c1c(Cl)cccc1Cl ; field requested: IC50
5.8

Query (compound): CC(=O)c1ccc(C)cc1N[C@H](C(N)=O)c1c(Cl)cccc1Cl ; field requested: IC50
16
